# System: SF-268 CNS
# measurement.description: NCI tumour cell line growth inhibition, 48 h
measurement.kind: TGI

As a guide, the following entries are already answered.
CC(=O)O[C@H]1CCC2[C@@H]3CCC4Nc5c(cnn5-c5ccccc5)C[C@]4(C)C3CC[C@@]21C (some centres undefined); > 100 µM
CC(=O)Nc1ccc2oc(=O)c3ccccc3c2c1; > 100 µM

// TGI lookup, compound = CC[C@@]1(O)C(=O)OCc2c1cc1n(c2=O)Cc2c-1nc1ccccc1c2/C=N\NC(=O)C(N)Cc1cnc[nH]1 (some centres undefined) , result: > 25.8 µM

// TGI lookup, compound = O=C(NC1CCN(Cc2ccccc2)CC1)c1cc(C(=O)NC2CCN(Cc3ccccc3)CC2)cc(C(=O)NC2CCN(Cc3ccccc3)CC2)c1 , result: 18.8 µM

// TGI lookup, compound = Cc1cccc2c1NC(=O)[C@@]21[C@H](C(=O)c2ccccc2)[C@]2(C(=O)Nc3ccccc32)[C@H]2CCCN21 , result: > 100 µM

// TGI lookup, compound = O=C1C(Cl)=C(Nc2cccc(O)c2)C(=O)N1c1cccc(Cl)c1 , result: > 100 µM

// TGI lookup, compound = CC([C@H]1CCC2C3CCC4CC5(CC[C@]4(C)C3CC[C@@]21C)c1ccccc1C(=O)N5C)N(C)C (some centres undefined) , result: > 100 µM

// TGI lookup, compound = NC(=O)c1cc(Cl)ccc1NC(=O)c1ccccc1-c1ccccc1 , result: > 100 µM

// TGI lookup, compound = C=C1SC(=Nc2ccccc2Cl)N(C(=O)c2sc3ccccc3c2Cl)C1(C)C , result: > 100 µM

// TGI lookup, compound = COc1ccccc1N1CCN(C(=O)c2ccc(NS(=O)(=O)c3cccc4cccnc34)cc2)CC1 , result: > 100 µM

// TGI lookup, compound = c1ccc(/N=C2\c3ccccc3CN2c2ccccn2)nc1 , result: > 100 µM

// TGI lookup, compound = CC(C)NC(=O)OCc1c(COC(=O)NC(C)C)c(-c2ccc[n+](COC(=O)C3CC3)c2)n2c1CCC2 , result: > 100 µM

====

# System: HS 578T breast
# measurement.description: NCI tumour cell line growth inhibition, 48 h
measurement.kind: TGI

// TGI lookup, compound = O=C(NC1CCN(Cc2ccccc2)CC1)c1cc(C(=O)NC2CCN(Cc3ccccc3)CC2)cc(C(=O)NC2CCN(Cc3ccccc3)CC2)c1 , result: 16.9 µM

// TGI lookup, compound = CCCC#CC(O)(C(=O)OC1CCN(C)CC1)C1CCCCC1 (stereo not given) , result: > 100 µM

// TGI lookup, compound = O=c1[nH]c(Nc2cccc(Br)c2)nc2nc[nH]c12 , result: > 100 µM

// TGI lookup, compound = CC(C)CC1[C@@H](OCc2ccccc2)COS(=O)(=O)N1Cc1ccccc1 (stereo not given in full) , result: 70 µM

// TGI lookup, compound = CCOC(=O)/C=C(\N=P(c1ccccc1)(c1ccccc1)c1ccccc1)C(F)(F)C(F)(F)C(F)(F)C(F)(F)C(F)(F)F , result: > 100 µM

// TGI lookup, compound = CSc1nncc2[nH]cnc12 , result: > 100 µM

// TGI lookup, compound = O=C(OCC1CCCN2CCCCC12)c1ccncc1 (stereo not given) , result: > 100 µM

====

# System: CCRF-CEM leukemia
# measurement.description: NCI tumour cell line growth inhibition, 48 h; in the data active = GI50 below about 0.43 µM; inactive = the rest
Respond using exactly one of the listed classes: Y (active), N (inactive)

Field: example entries. Status: answers known.
O=S(=O)(NCCCNc1cc(-c2cn(-c3ccccc3)nc2-c2cccc(O)c2)ccn1)c1cccc2ccccc12; N
COc1cccc(-c2nc(-c3ccc(NC(=O)c4ccccc4)cc3)[nH]c2-c2ccnc(Br)c2)c1; N
CCCCNC(=O)Oc1ccc2c(=O)c3sc4c(=O)c5ccccc5c(=O)c4c3c(=O)c2c1; N
COc1ccccc1N1CCN(C(=O)c2ccc(NS(=O)(=O)c3cccc4cccnc34)cc2)CC1; N
O=C(O[C@H]1CN[C@H](C#Cc2cc3ncnc(Nc4ccc(OCc5cccc(F)c5)c(Cl)c4)c3s2)C1)N1CCOCC1; N

Req: Which outcome was assigned to CC1OC(O[C@H]2/C=C/C=C/C=C/C=C/C=C/C=C/C=C/[C@H](C)[C@@H](O)[C@@H](C)[C@H](C)OC(=O)C[C@H](O)C[C@H](O)CC[C@@H](O)[C@H](O)C[C@H](O)C[C@]3(O)C[C@H](O)[C@@H](C(=O)O)[C@H](C2)O3)C(O)C(N)C1O (some centres undefined) in this test?
Resp: N

Req: Which outcome was assigned to O=C1C=C(N2CC2)C(=O)C=C1N1CC1 in this test?
Resp: Y

Req: Which outcome was assigned to C#Cc1cccc(Nc2ncnc3ccc(-c4cnc(Cl)c(NS(C)(=O)=O)c4)cc23)c1 in this test?
Resp: Y

Req: Which outcome was assigned to Cc1cccc2c1O/C(=C\c1ncc([N+](=O)[O-])n1C)C2=O in this test?
Resp: Y

Req: Which outcome was assigned to C=C1SC(=Nc2ccccc2Cl)N(C(=O)c2sc3ccccc3c2Cl)C1(C)C in this test?
Resp: N

Req: Which outcome was assigned to COc1ccc(-c2csc(NC(=O)N3CCN(c4cc5c(cc4F)c(=O)c(C(=O)O)cn5C4CC4)CC3)n2)cc1 in this test?
Resp: N

Req: Which outcome was assigned to O=C1/C(=C/c2ccccc2Br)COc2ccc(O)c(O)c21 in this test?
Resp: Y

Req: Which outcome was assigned to CCN(CC)Cc1cc(Nc2ccnc3cc(Cl)ccc23)cc(-c2ccc(Cl)cc2)c1O in this test?
Resp: N

====

# Test system: UACC-62 melanoma
# measurement.description: NCI tumour cell line growth inhibition, 48 h; in the data active means GI50 below about 0.43 µM; inactive means the rest
Respond using exactly one of the listed classes: True for active, False for inactive

Field: example entries. Status: answers known.
C=C1SC(=Nc2ccccc2Cl)N(C(=O)c2sc3ccccc3c2Cl)C1(C)C; False
C/C=C1\C(=O)O[C@@H]2C1C[C@@H]1O[C@H]2[C@H](C)CCC/C(C)=C/CC[C@@]1(C)O (some centres undefined); False
O=C1C(Cl)=C(Nc2cccc(O)c2)C(=O)N1c1cccc(Cl)c1; False
CC1OC(O[C@H]2/C=C/C=C/C=C/C=C/C=C/C=C/C=C/[C@H](C)[C@@H](O)[C@@H](C)[C@H](C)OC(=O)C[C@H](O)C[C@H](O)CC[C@@H](O)[C@H](O)C[C@H](O)C[C@]3(O)C[C@H](O)[C@@H](C(=O)O)[C@H](C2)O3)C(O)C(N)C1O (some centres undefined); False
C=Cc1cc2c(cc1O)CC[C@@H]1[C@@H]2CC[C@]2(C)[C@@H](O)CC[C@@H]12; False
COc1cc(/C=C2\CN(S(=O)(=O)c3ccc(C)cc3)C/C(=C\c3cc(CN4CCCCC4)c(O)c(OC)c3)C2=O)cc(CN2CCCCC2)c1O; False
CCCCNC(=O)Oc1ccc2c(=O)c3sc4c(=O)c5ccccc5c(=O)c4c3c(=O)c2c1; True
CCn1cc(C(=O)N/N=C/c2cccc(F)c2)c(=O)c2cc(F)c(N3CCNC(C)C3)c(F)c21 (centres undefined); False

Now for a further molecule.
Req: Which outcome was assigned to C#Cc1cccc(Nc2ncnc3ccc(-c4cnc(Cl)c(NS(C)(=O)=O)c4)cc23)c1 in this test?
Resp: True

====

# Tested on: UACC-257 melanoma
# measurement.description: NCI tumour cell line growth inhibition, 48 h
Entries and their TGI
Report only the number, with the unit µM understood.

As a guide, the following entries are already answered.
Oc1cccc(Cn2c(-c3cccc(O)c3O)nc3ccccc32)c1O; 50.1
CCN(CC)Cc1cc(Nc2ccnc3cc(Cl)ccc23)cc(-c2ccc(Cl)cc2)c1O; 4.85
C/C(=N\O)c1cccc(Nc2nc3ccccc3c3occc23)c1; 2.59
Oc1ccc2ccccc2c1N=Nc1ccccn1; 8.02
ClC1(c2ccccc2)c2ccc(Br)cc2-c2cc(Br)ccc21; 34.9

So the reported TGI for CN(C)c1ccc2cc(-c3cc4c(oc3=O)-c3ccccc3OC4O)c(=O)oc2c1 (stereo not drawn) , on UACC-257 melanoma, turned out to be 10.6

So the reported TGI for O=C1CCC2=C3C4CCCCC4C(=O)C4CCCC(OC2C1)C34 (stereo not drawn) , on UACC-257 melanoma, turned out to be 4.93

So the reported TGI for CC(C)Cc1ccc(C(C)/C=C2\CCC(CN3CCCC3)C2=O)cc1 (stereo not drawn) , on UACC-257 melanoma, turned out to be 31.1

So the reported TGI for Clc1ccc2c(NCCNc3ccnc4cc(Cl)ccc34)ccnc2c1 , on UACC-257 melanoma, turned out to be 32.3

====

# Tested on: SW-620 colon
# measurement.description: NCI tumour cell line growth inhibition, 48 h
Entries and their TGI

As a guide, the following entries are already answered.
CN(C)CCNC(=O)c1ccc(NCCCN(C)CCCNc2ccc(C(=O)NCCN(C)C)c3[nH]c4ccc([N+](=O)[O-])cc4c(=O)c23)c2c(=O)c3cc([N+](=O)[O-])ccc3[nH]c12; 0.557 µM
N#CC(C(=O)CCC(=O)Nc1ccc(Cl)cc1)c1ccccc1Cl (stereo not drawn); > 100 µM
Cc1ccc(Nc2sc(C)cc2C#N)c([N+](=O)[O-])c1; > 100 µM
COc1ccc2c(c1)CCCN1CCc3cc(OC)c(OC)cc3C21 (stereo not drawn); > 100 µM

// TGI lookup, compound = CN[C@@H](C)[C@H](OP(=O)(O)OC1[C@@H](O)[C@H](O)C(O)[C@H](O)[C@@H]1O)c1ccccc1 (stereo partly drawn) , result: > 100 µM

// TGI lookup, compound = O=C(NCCCCNCCCNC(=O)c1cc(-c2ccccc2)nc2ccccc12)c1cc(-c2ccccc2)nc2ccccc12 , result: 3.1 µM

// TGI lookup, compound = Oc1ccc2ccccc2c1N=Nc1ccccn1 , result: > 100 µM

// TGI lookup, compound = O=C(/C=C/c1cccs1)c1cccc(C(=O)/C=C/c2cccs2)n1 , result: 15.6 µM

// TGI lookup, compound = COc1cccc2c1C(=O)c1c(O)c3c(c(O)c1C2=O)C[C@@](O)(/C(C)=N/NC(=O)c1ccccc1)C[C@@H]3OC1CC(N)C(O)C(C)O1 (stereo partly drawn) , result: 4.89 µM

// TGI lookup, compound = CC(=O)O[C@H]1C(=O)[C@@]2(C)[C@H]([C@H](OC(=O)c3ccccc3)[C@]3(O)C[C@H](OC(=O)[C@H](O)[C@@H](NC(=O)CC(C)C)c4ccccc4)C(C)=C1C3(C)C)[C@]1(OC(C)=O)CO[C@@H]1C[C@@H]2O , result: > 10 µM

meta.source: PubChem BioAssay (NCI)
